Test system: SW1116 (Colorectal Carcinoma)
assay.notes: combination Emax (second highest fraction inhibited in the dose matrix, 72 h); higher = more inhibition; extreme values may be limits of the assay
Assign combination Emax to each entry below.
Respond numerically, and do not add a unit to the figure.

[in] Give measured combination Emax for Cc1c2c(nn1C)CSCc1cc(n(C)n1)CSc1cc(c3ccccc3c1)OCCCc1c(C(=O)O)n(C)c3c-2c(Cl)ccc13 [AZD5991] + CN(C)CCCOc1ccc(-c2ccc3ncc4c(c3c2)n(C2CCOCC2)c(=O)n4C)cn1 [AZD0156] (first compound max 1 µM, 7x7, partner max 1 µM) (SW1116 (Colorectal Carcinoma)).
[out] 0.173

[in] Give measured combination Emax for CC1(C)CCC(CN2CCN(c3ccc(C(=O)NS(=O)(=O)c4ccc(NCC5CCOCC5)c([N+](=O)[O-])c4)c(Oc4cnc5[nH]ccc5c4)c3)CC2)=C(c2ccc(Cl)cc2)C1 [Venetoclax] + C[C@@H](Nc1cc(F)cc(F)c1)c1cc(C(=O)N(C)C)cc2c(=O)cc(N3CCOCC3)oc12 [AZD8186] (first compound max 1 µM, 7x7, partner max 3 µM) (SW1116 (Colorectal Carcinoma)).
[out] 0.0998

[in] Give measured combination Emax for O=C(c1cc(Cc2n[nH]c(=O)c3ccccc23)ccc1F)N1CCN(C(=O)C2CC2)CC1 [Olaparib] + COc1nnc2ccc(N3CCC(c4ccc(OCCN5CCN(C)C(=O)[C@H]5C)cc4)CC3)nn12 [AZD5153] (first compound max 10 µM, 7x7, partner max 1 µM) (SW1116 (Colorectal Carcinoma)).
[out] 0.332

[in] Give measured combination Emax for C=CCn1c(=O)c2cnc(Nc3ccc(N4CCN(C)CC4)cc3)nc2n1-c1cccc(C(C)(C)O)n1 [AZD1775] + Nc1ccn([C@@H]2O[C@H](CO)[C@@H](O)C2(F)F)c(=O)n1 [Gemcitabine] (first compound max 1 µM, partner max 0.3 µM) (SW1116 (Colorectal Carcinoma)).
[out] 0.405

[in] Give measured combination Emax for COc1cc2ncnc(Nc3ccc(F)c(Cl)c3)c2cc1OCCCN1CCOCC1 [Gefitinib] + CC(C)n1c(=O)n(C)c2cnc3cc(F)c(-c4ccc(OCCCN5CCCCC5)nc4)cc3c21 [AZD1390] (first compound max 10 µM, 7x7, partner max 0.3 µM) (SW1116 (Colorectal Carcinoma)).
[out] 0.241

[in] Give measured combination Emax for Cc1cc2ncnn2cc1Nc1ncc2c(n1)n(C1CCOCC1)c(=O)n2C [AZD7648] + CCN(CCO)CCCOc1ccc2c(Nc3cc(CC(=O)Nc4cccc(F)c4)[nH]n3)ncnc2c1 [AZD2811] (first compound max 10 µM, 7x7, partner max 1 µM) (SW1116 (Colorectal Carcinoma)).
[out] 0.249

[in] Give measured combination Emax for COc1nnc2ccc(N3CCC(c4ccc(OCCN5CCN(C)C(=O)[C@H]5C)cc4)CC3)nn12 [AZD5153] + Cc1c2c(nn1C)CSCc1cc(n(C)n1)CSc1cc(c3ccccc3c1)OCCCc1c(C(=O)O)n(C)c3c-2c(Cl)ccc13 [AZD5991] (first compound max 1 µM, 7x7, partner max 1 µM) (SW1116 (Colorectal Carcinoma)).
[out] 0.414

* * *

Test system: HCC-15 (Squamous Cell Lung Carcinoma)
assay.notes: combination Emax (second highest fraction inhibited in the dose matrix, 72 h); higher = more inhibition; extreme values may be limits of the assay
observable: combination Emax
Respond numerically, and do not add a unit to the figure.

[in] Give measured combination Emax for CC1(C)CCC(CN2CCN(c3ccc(C(=O)NS(=O)(=O)c4ccc(NCC5CCOCC5)c([N+](=O)[O-])c4)c(Oc4cnc5[nH]ccc5c4)c3)CC2)=C(c2ccc(Cl)cc2)C1 [Venetoclax] + C=CCn1c(=O)c2cnc(Nc3ccc(N4CCN(C)CC4)cc3)nc2n1-c1cccc(C(C)(C)O)n1 [AZD1775] (first compound max 1 µM, partner max 1 µM) (HCC-15 (Squamous Cell Lung Carcinoma)).
[out] 0.469

[in] Give measured combination Emax for Cc1cc2ncnn2cc1Nc1ncc2c(n1)n(C1CCOCC1)c(=O)n2C [AZD7648] + C[C@@H]1COCCN1C2=NC(=NC(=C2)C3(CC3)[S@](=N)(=O)C)C4=C5C=CNC5=NC=C4 [AZD6738] (first compound max 10 µM, 7x7, partner max 10 µM) (HCC-15 (Squamous Cell Lung Carcinoma)).
[out] 0.181

[in] Give measured combination Emax for C[C@@H](c1ccc2nccn2c1)n1nnc2ncc(-c3cnn(C)c3)nc21 [Savolitinib] + Cc1c2c(nn1C)CSCc1cc(n(C)n1)CSc1cc(c3ccccc3c1)OCCCc1c(C(=O)O)n(C)c3c-2c(Cl)ccc13 [AZD5991] (first compound max 1 µM, 7x7, partner max 1 µM) (HCC-15 (Squamous Cell Lung Carcinoma)).
[out] 0.124

* * *

Assign Bliss excess to each entry below.
Tested on: Hs-633T (Other Solid Carcinomas)
assay.notes: Bliss excess, mean over the matrix (fraction); higher = more synergy
Respond numerically, and do not add a unit to the figure.

[in] Return the recorded Bliss excess value; entry: C[C@@H](Nc1cc(F)cc(F)c1)c1cc(C(=O)N(C)C)cc2c(=O)cc(N3CCOCC3)oc12 [AZD8186] + CC(=O)c1c(C)c2cnc(Nc3ccc(N4CCNCC4)cn3)nc2n(C2CCCC2)c1=O [Palbociclib] (first compound max 10 µM, 7x7, partner max 10 µM)
[out] 0.05

[in] Return the recorded Bliss excess value; entry: O=C(c1cc(Cc2n[nH]c(=O)c3ccccc23)ccc1F)N1CCN(C(=O)C2CC2)CC1 [Olaparib] + Cc1c2c(nn1C)CSCc1cc(n(C)n1)CSc1cc(c3ccccc3c1)OCCCc1c(C(=O)O)n(C)c3c-2c(Cl)ccc13 [AZD5991] (first compound max 10 µM, 7x7, partner max 1 µM)
[out] -0.0037

[in] Return the recorded Bliss excess value; entry: CC1(C)CCC(CN2CCN(c3ccc(C(=O)NS(=O)(=O)c4ccc(NCC5CCOCC5)c([N+](=O)[O-])c4)c(Oc4cnc5[nH]ccc5c4)c3)CC2)=C(c2ccc(Cl)cc2)C1 [Venetoclax] + CCN(CCO)CCCOc1ccc2c(Nc3cc(CC(=O)Nc4cccc(F)c4)[nH]n3)ncnc2c1 [AZD2811] (first compound max 1 µM, 7x7, partner max 1 µM)
[out] -0.0086

* * *

System: CAL-51 (Breast Carcinoma)
assay.notes: Bliss excess, mean over the matrix (fraction); higher = more synergy
Assign Bliss excess to each entry below.
Respond numerically, and do not add a unit to the figure.

[in] Return the recorded Bliss excess value; entry: NC1(C(=O)N[C@@H](CCO)c2ccc(Cl)cc2)CCN(c2ncnc3[nH]ccc23)CC1 [Capivasertib] + CC(C)n1c(=O)n(C)c2cnc3cc(F)c(-c4ccc(OCCCN5CCCCC5)nc4)cc3c21 [AZD1390] (first compound max 10 µM, 7x7, partner max 0.3 µM)
[out] -0.0972

[in] Return the recorded Bliss excess value; entry: C=CCn1c(=O)c2cnc(Nc3ccc(N4CCN(C)CC4)cc3)nc2n1-c1cccc(C(C)(C)O)n1 [AZD1775] + C1CN(CCC1(C(=O)N[C@@H](CCO)C2=CC=C(C=C2)Cl)N)C3=NC=NC4=C3C=CN4 [Capivasertib] (first compound max 3 µM, partner max 3 µM)
[out] -0.0188

* * *

Tested on: MDA-MB-468 (Breast Carcinoma)
assay.notes: combination Emax (second highest fraction inhibited in the dose matrix, 72 h); higher = more inhibition; extreme values may be limits of the assay
observable: combination Emax
Respond numerically, and do not add a unit to the figure.

[in] Return the recorded combination Emax value; entry: C[C@@H]1COCCN1c1cc(C2([S@](C)(=N)=O)CC2)nc(-c2ccnc3[nH]ccc23)n1 [AZD6738] + C1CC(C1)(C(=O)[O-])C(=O)[O-].N.N.[Pt+2] [Carboplatin] (first compound max 10 µM, 7x7, partner max 10 µM)
[out] 0.583

[in] Return the recorded combination Emax value; entry: C=CCn1c(=O)c2cnc(Nc3ccc(N4CCN(C)CC4)cc3)nc2n1-c1cccc(C(C)(C)O)n1 [AZD1775] + C1CN(CCC1(C(=O)N[C@@H](CCO)C2=CC=C(C=C2)Cl)N)C3=NC=NC4=C3C=CN4 [Capivasertib] (first compound max 3 µM, partner max 3 µM)
[out] 0.741

[in] Return the recorded combination Emax value; entry: NC1(C(=O)N[C@@H](CCO)c2ccc(Cl)cc2)CCN(c2ncnc3[nH]ccc23)CC1 [Capivasertib] + Cn1cnc2c(F)c(Nc3ccc(Br)cc3Cl)c(C(=O)NOCCO)cc21 [Selumetinib] (first compound max 10 µM, 7x7, partner max 10 µM)
[out] 0.741

[in] Return the recorded combination Emax value; entry: O=C(c1cc(Cc2n[nH]c(=O)c3ccccc23)ccc1F)N1CCN(C(=O)C2CC2)CC1 [Olaparib] + Cc1c2c(nn1C)CSCc1cc(n(C)n1)CSc1cc(c3ccccc3c1)OCCCc1c(C(=O)O)n(C)c3c-2c(Cl)ccc13 [AZD5991] (first compound max 10 µM, 7x7, partner max 1 µM)
[out] 0.42
